# STUDY SYSTEM: tyrosinase (Agaricus bisporus)
# PROTOCOL TEXT: Fluorescence quenching of tyrosinase
# Format: binding
# REPORTED CONDITIONS: Ka, T 298 K
# Sequence (C7FF04 1-392 limits assumed): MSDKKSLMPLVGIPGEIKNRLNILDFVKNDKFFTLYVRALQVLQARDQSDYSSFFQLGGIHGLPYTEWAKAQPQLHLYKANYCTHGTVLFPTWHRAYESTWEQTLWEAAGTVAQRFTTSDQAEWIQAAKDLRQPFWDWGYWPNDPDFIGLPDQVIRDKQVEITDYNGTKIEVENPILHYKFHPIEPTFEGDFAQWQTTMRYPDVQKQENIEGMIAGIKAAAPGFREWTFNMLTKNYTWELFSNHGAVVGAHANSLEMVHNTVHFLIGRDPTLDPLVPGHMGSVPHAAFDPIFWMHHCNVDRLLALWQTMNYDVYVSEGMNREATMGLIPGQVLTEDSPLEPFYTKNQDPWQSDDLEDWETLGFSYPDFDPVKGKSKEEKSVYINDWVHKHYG
Listed below: pKd values for each entry.
Scale explanation: pKd corresponds to minus log10 of a concentration expressed in moles per litre.

[[record]]
smiles_data = "COc1cc(-c2oc3cc(O)cc(O)c3c(=O)c2O)ccc1O"
study_system = "tyrosinase (Agaricus bisporus)"
assay_value = 5.26


Field: next molecule
// sample O=c1c(O)c(-c2ccc(O)cc2)oc2cc(O)cc(O)c12 , its pKd was 4.32

---

Read-out record for tyrosinase (Agaricus bisporus, UniProt C7FF04): IC50
Give the quantity in µM, number only.

[[record]]
molecule = "O=c1c(O)c(-c2ccc(O)cc2)oc2cc(O)cc(O)c12 [Kaempferol]"
assay_value = 82.1


Field: next molecule
// sample COc1cc(-c2oc3cc(O)cc(O)c3c(=O)c2O)ccc1O [Isorhamnetin] , its IC50 was 96.4
